Molecular target: T1, recombinant Fc-TrkB antigen (human) (human, UniProt Q16620 32-430, limits assumed)
T1 construct: Biotinylated for the ForteBio assays; also called Fc-hTrkB; human Fc-TrkB; not shown: Fc part
Assay: SPR (Biacore S51), Fc-hTrkB amine-coupled to CM-5 chip, IgG in flow, global 1:1 Langmuir fit
Description: Binding studies on the improved antibodies were performed by immobilizing Fc-hTrkB onto a Series S CM-5 Biacore sensor chip (certified) (Biacore #BR-1005-30). Covalent binding of the Fc-fusion protein was done with the ‘Amine Coupling Kit’ (Biacore #BR-1000-50). […] A range of concentrations of improved antibodies were flowed over the Fc-TrkB captured chip in PBS plus 100 mM NaCl, 0.005% P20 (Biacore #BR-1000-54). The resulting sensorgrams were analyzed using the Biacore S51 Evaluation Software. […]
Entries and their Kd values follow.
Write the answer as a number in pM, unit excluded.

Some binders with known Kd results, for comparison:
## Input Given the binder NVP-LFD253 (antibody, human IgG1, V domains shown, IgG with human IgG1 constant region and human kappa constant region, from transiently transfected CHO cells; also called TR127 Vh & TR137 Vk) VH: QVQLVQSGAEVKKPGASVKVSCKASGYTFTAYDMHWVRQAPGQGLEWMGWIDPNSGGTRYAQKFQGRVTMTRDTSISTAYMELSRLTSDDTAVYYCTGVTTWFAYWGQGTLVTVSS VL: DIVMTQTPLSLPVTLGQPASISCRSSQSLVHSNGNTYLSWLQQRPGQPPRLLIYKISNRFSGVPDRFSGSGAGTDFTLKISRVEAEDVGVYYCMQGTHEPYTFGQGKLEIK , write its reported Kd.
## Output 165

## Input Given the binder NVP-LFD254 (antibody, human IgG1, V domains shown, IgG with human IgG1 constant region and human kappa constant region, from transiently transfected CHO cells; also called TR143 Vh & TR119 Vk) VH: QVQLVQSGAEVKKPGASVKVSCKASGYTFTAYDMHWVRQAPGQGLEWMGWIDPRSGDTSYKQKFQGRVTMTRDTSISTAYMELHRLRSDDTAVYYCTGVTTWFAYWGQGTLVTVSS VL: DIVMTQTPLSLPVTLGQPASISCRSSQSLLHSNGNTYLNWYQQTPGQPPRLLIYKISNRFSGVPDRFSGSGAGTDFTLKISRVEAEDVGVYYCMQGTHVPYTFGQGKLEIK , write its reported Kd.
## Output 117

## Input Given the binder NVP-LFC327 (antibody, human IgG1, V domains shown, IgG with human IgG1 constant region and human kappa constant region, from transiently transfected CHO cells; also called TR127 Vh & TR129 Vk) VH: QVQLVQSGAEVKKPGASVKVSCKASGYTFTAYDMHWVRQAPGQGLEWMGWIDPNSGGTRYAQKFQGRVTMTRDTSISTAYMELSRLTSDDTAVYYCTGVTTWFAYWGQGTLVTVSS VL: DIVMTQSPLSLPVTLGQPASISCRSSQSLVHSNGNTYLNWYQQKPGQPPRLLIYKISNRFSGVPDRFSGSGAGTDFTLKISRVEAEDVGVYYCMQGTHEPYTFGQGKLEIK , write its reported Kd.
## Output 146

Proceed to the following item.
## Input Given the binder NVP-LFC325 (antibody, human IgG1, V domains shown, IgG with human IgG1 constant region and human kappa constant region, from transiently transfected CHO cells; also called TR127 Vh & TR119 Vk) VH: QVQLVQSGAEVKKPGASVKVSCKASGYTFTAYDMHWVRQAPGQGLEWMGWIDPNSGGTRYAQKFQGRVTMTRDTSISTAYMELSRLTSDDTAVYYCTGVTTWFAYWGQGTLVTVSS VL: DIVMTQTPLSLPVTLGQPASISCRSSQSLLHSNGNTYLNWYQQTPGQPPRLLIYKISNRFSGVPDRFSGSGAGTDFTLKISRVEAEDVGVYYCMQGTHVPYTFGQGKLEIK , write its reported Kd.
## Output 114
